System: MS2 coat protein
Experiment: apparent KD of MS2 coat protein; designed switch direction (-1 OFF switch, 1 ON switch): -1; higher = weaker reporter binding
Details: Eterna round: R95; input ligand: microRNA oligo, concentration not stated
measured_attribute: apparent KD of MS2 coat protein (nM)
Express your answer in nM, writing the number without its unit.

sequence: CGUGACUCAGGAUAUGUAUAAUAUCACAUGAGGAUCACCCAUGUCCAGCGAAAGCUGGAGGCAGAAGGGAGUCACG [Fiskers Ex 5 - 38] (puzzle: Exclusion 5)
measured_attribute: apparent KD of MS2 coat protein
observed_value: 58.8
//
sequence: GUGAAGUAAGGAUAUAGUGGAAAAGAUAAGGUAUGAGAGUUCUAGAAGGUACAUGAGGAUCACCCAUGUUAGGG [JR_Exclu4_Sub085] (puzzle: Exclusion 4)
measured_attribute: apparent KD of MS2 coat protein
observed_value: 267

q: Entry under review: GGAAAGGUAGGAUAUACGAAGAAAAAGGGUAGAAUAAUAACACAUGAGGAUCACCCAUGUAGAAGGACCAAAGC [Mat - Exclusion 2 - Mod of my Tesla design - D13] (puzzle: Exclusion 2) . Reported apparent KD of MS2 coat protein?
a: 21
